- targetEntity: T1, human glucose-dependent insulinotropic polypeptide receptor (human, UniProt P48546 22-466)
- T1 sequence (looked up): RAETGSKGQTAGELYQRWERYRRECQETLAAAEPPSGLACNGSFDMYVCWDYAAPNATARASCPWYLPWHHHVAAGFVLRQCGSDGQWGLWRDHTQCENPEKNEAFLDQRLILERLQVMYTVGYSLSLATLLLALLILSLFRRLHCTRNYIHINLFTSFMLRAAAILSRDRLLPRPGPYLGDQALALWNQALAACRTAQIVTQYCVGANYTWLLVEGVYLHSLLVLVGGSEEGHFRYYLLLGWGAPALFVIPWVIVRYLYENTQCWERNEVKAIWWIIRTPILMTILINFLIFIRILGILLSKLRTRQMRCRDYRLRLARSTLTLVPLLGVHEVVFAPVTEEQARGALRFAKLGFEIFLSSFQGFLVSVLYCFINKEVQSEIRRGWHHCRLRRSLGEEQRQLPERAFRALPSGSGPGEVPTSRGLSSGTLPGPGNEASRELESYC
- assayName: cell-based or functional assay
Where no end group is shown, it is not given here. [ ]: non-standard residue; d: D form. Aib = CC(C)(N)C(=O)O
readoutLabel: hGIPR CRE Luc EC50 (pM)

1. H[Aib]HGTFTSDYSYYLEKQAA[Aib]EFVQWLLEGGPSSGAPPPS-NH2 (not fully specified (residue 16); printed as H-Aib-HGTFTSDYSYYLE-K[(2S)-2-amino-6-[[(2S)-2-amino-6-[[(4S)-4-carboxy-4-(19-carboxynonadecanoylamino)butanoyl]amino]hexanoyl]amino]hexanoyl]-QAA-Aib-EFVQWLLEGGPSSGAPPPS-NH2) [Compound No. 26]    6.5
